- experiment summary: MRT in Sprague-Dawley rat at 5 mg/kg, ip measured upto 24 hrs by LC-MS/MS analysis
- Type: ADME, organism-based
- assay conditions: in vivo
experimental readout: MRT (h)
Response body: numeric value in h, unit text excluded.

[in] Requested field: MRT. Item: "Cc1cc(C)cc(-n2nc(-c3ccc(C(F)(F)F)cc3O)nc2-c2ccccc2O)c1"
[out] 16.5

---

- experiment summary: AUC (0 to infinity) in Sprague-Dawley rat at 5 mg/kg, ip measured upto 24 hrs by LC-MS/MS analysis
- Assay type: ADME, organism-based
- Set-up: time < 24 hrs, dose 5 mg/kg, route ip
- assay conditions: in vivo
experimental readout: AUC(0-inf) (ng·h/mL)
The reply should be a number in ng·h/mL, with the unit left off.

[in] Endpoint output: AUC(0-inf) of "Cc1cc(C)cc(-n2nc(-c3ccc(C(F)(F)F)cc3O)nc2-c2ccccc2O)c1" . Value?
[out] 2930

---

- experiment summary: Cmax in Sprague-Dawley rat at 5 mg/kg, ip measured at 2 hrs by LC-MS/MS analysis
- Assay type: ADME, organism-based
- Parameters: dose 5 mg/kg, time 2 hrs, route ip
- assay conditions: in vivo
experimental readout: Cmax (ng/mL)
Numeric answer only, unit ng/mL assumed.

[in] What does the data say about its Cmax? Entry: "Cc1cc(C)cc(-n2nc(-c3ccc(C(F)(F)F)cc3O)nc2-c2ccccc2O)c1"
[out] 323

---

- experiment summary: Bioavailability in Sprague-Dawley rat at 5 mg/kg, ip measured upto 24 hrs by LC-MS/MS analysis
- Type: ADME, organism-based
- assay conditions: in vivo
experimental readout: bioavailability (%)
Number in %, nothing else.

[in] What value of measured bioavailability is listed for "Cc1cc(C)cc(-n2nc(-c3ccc(C(F)(F)F)cc3O)nc2-c2ccccc2O)c1" ?
[out] 28.8

---

- experiment summary: Cytotoxicity against human HaCaT cells assessed as reduction in cell viability by MTT assay
- Type: toxicity, cell-based
IC50 overview
Numeric answer only, unit µM assumed.

Some solved entries appear below for comparison.
CC(C)c1ccc(-n2nc(-c3ccc(C(F)(F)F)cc3O)nc2-c2ccccc2O)cc1    51.4
Oc1cc(C(F)(F)F)ccc1-c1nc(-c2ccccc2O)n(-c2ccc(I)cc2)n1    32.1
Cc1ccc(-n2nc(-c3ccc(C(F)(F)F)cc3O)nc2-c2ccccc2O)c(C)c1    94.8

[in] // IC50 lookup, key: "Cc1cc(C)cc(-n2nc(-c3ccc(C(F)(F)F)cc3O)nc2-c2ccccc2O)c1"
[out] 127

[in] For "Cc1ccc(-n2nc(-c3ccc(C(F)(F)F)cc3O)nc2-c2ccccc2O)cc1" , what is its reported IC50?
[out] 81.8

[in] Which IC50 value belongs to "COc1cccc(-n2nc(-c3ccc(C(F)(F)F)cc3O)nc2-c2ccccc2O)c1" ?
[out] 81.1

[in] Which IC50 value is on record for "Oc1cc(C(F)(F)F)ccc1-c1nc(-c2ccccc2O)n(-c2cccc(C(F)(F)F)c2)n1" ?
[out] 54.3

[in] So what's the measured IC50 for this one? "Oc1cc(C(F)(F)F)ccc1-c1nc(-c2ccccc2O)n(-c2cc(F)cc(F)c2)n1"
[out] 45.4

[in] # query: IC50 of entry "CCc1ccc(-n2nc(-c3ccc(C(F)(F)F)cc3O)nc2-c2ccccc2O)cc1"
[out] 57

[in] Which IC50 value is on record for "Oc1cc(C(F)(F)F)ccc1-c1nc(-c2ccccc2O)n(-c2ccc(Br)cc2)n1" ?
[out] 29.6
